// data source = patent US20260306506A1

# TESTED_SYSTEM: G12D GTPγS KRAS (aa1-185) (Homo sapiens, UniProt P01116, G12D)
# Construct: G12DGDP KRAS (aa1-185); made in house
# TEST_DETAILS: SPR binding (Biacore), GTPγS-loaded KRAS G12D
# RECORDED_CONDITIONS: dissociative half-life, t1/2=0.693/koff
QUANTITY: KRasGTPgS G12D SPR t1/2 (h)

C=C1CN2CCC[C@@]2(COc2nc3c4c(nc(-c5cc(O)cc6ccc(F)c(CC)c56)c(F)c4n2)OC[C@@H]2COCCCN32)C1	11.3

(1) C#Cc1c(F)c(F)cc2cc(O)cc(-c3nc4c5c(nc(OC[C@@]67CCCN6C[C@H](F)C7)nc5c3F)N3CCCC[C@H]3CO4)c12
(2) C#Cc1c(F)ccc2cc(O)cc(-c3nc4c5c(nc(OC[C@@]67CCCN6CC(=C)C7)nc5c3F)N(CC)CCO4)c12
(3) C#Cc1c(F)ccc2cc(O)cc(-c3nc4c5c(nc(OC[C@@]67CCCN6CC(=C)C7)nc5c3F)N3CCCC[C@H]3CO4)c12
q: Number of compounds to sort: 3. Sort criterion: KRasGTPgS G12D SPR t1/2, ascending. Hello, could you send the labels back in the order asked? Thank you.
a: 2, 3, 1

----------
# TESTED_SYSTEM: G12V GTPγS KRAS (aa2-184) (Homo sapiens, UniProt P01116, G12V)
# Construct: G12VGDP KRAS (aa2-184); made in house
# TEST_DETAILS: SPR binding (Biacore), GTPγS-loaded KRAS G12V
# RECORDED_CONDITIONS: dissociative half-life, t1/2=0.693/koff
QUANTITY: KRasGTPgS G12V SPR t1/2 (h)

C=C1CN2CCC[C@@]2(COc2nc3c4c(nc(-c5cc(O)cc6ccc(F)c(CC)c56)c(F)c4n2)OC[C@@H]2COCCCN32)C1 [Example 35]	10.3

(I) C#Cc1c(F)ccc2cc(O)cc(-c3nc4c5c(nc(OC[C@@]67CCCN6CC(=C)C7)nc5c3F)N3CCCC[C@H]3CO4)c12 [Example 36]
(II) C#Cc1c(F)ccc2cc(O)cc(-c3nc4c5c(nc(OC[C@@]67CCCN6CC(=C)C7)nc5c3F)N(CC)CCO4)c12 [Example 37]
q: Of the two listed items, which has the higher KRasGTPgS G12V SPR t1/2? First: I Second: II Kindly state the label of the option you pick.
a: I
(I: 8.9 h, II: 0.4 h)

----------
# TESTED_SYSTEM: G12D GDP KRAS (aa1-185) (Homo sapiens, UniProt P01116, G12D)
# TEST_DETAILS: biochemical
QUANTITY: Kd (nM)

(A) C#Cc1c(F)ccc2cc(O)cc(-c3nc4c5c(nc(OC[C@@]67CCCN6CC(=C)C7)nc5c3F)N(CC)CCO4)c12
(B) C#Cc1c(F)ccc2cc(O)cc(-c3nc4c5c(nc(OC[C@@]67CCCN6CC(=C)C7)nc5c3F)N3CCCC[C@H]3CO4)c12
(C) C=C1CN2CCC[C@@]2(COc2nc3c4c(nc(-c5cc(O)cc6ccc(F)c(CC)c56)c(F)c4n2)OC[C@@H]2COCCCN32)C1
q: Hey, quick one: sort these by Kd, low to high? Hello, could you send the labels back in the order asked? Thank you.
a: C, A, B
